Source: ChEMBL document CHEMBL3774372

# Protocol details: Tmax in CD1 mouse brain at 12.92 mg/kg, ip measured up to 240 mins by LC/ESI-MS/MS analysis
# Assay type: ADME, organism-based
Property name: Tmax (min)
State just the number; it will be interpreted in min.

IN: Reported Tmax for `Cc1cccc(C)c1OCCOCCN[C@H](C)CO.Cl` : what is it?
OUT: 15

---

# Protocol details: Cmax in CD1 mouse brain at 1 mg/kg, iv measured up to 240 mins by LC/ESI-MS/MS analysis
# Format: ADME, organism-based
# Design: dose 1 mg/kg, route intravenous
Property name: Cmax (ng/mL)
State just the number; it will be interpreted in ng/mL.

IN: Reported Cmax for `Cc1cccc(C)c1OCCOCCN[C@H](C)CO.Cl` : what is it?
OUT: 11500

---

# System: Mus musculus
# Protocol details: Anticonvulsant activity in mouse assessed as protection against maximal electric shock-induced seizures at 100 mg/kg, ip measured after 4 hrs
# Type: functional, organism-based
Calls of active or inactive are those of the source. The rule behind the calls is not given here.
Property name: Activity

INSERT INTO assay_data (compound, property_name, assay_value) VALUES
  ('Cc1cccc(C)c1OCCOCCN[C@@H]1CCCC[C@H]1O (racemic)', 'Activity', 'inactive'),
  ('Cc1cccc(OCCN[C@@H]2CCCC[C@H]2O)c1C (racemic)', 'Activity', 'inactive'),
  ('CCC(CO)NCCOCCOc1c(C)cccc1C (configuration not stated)', 'Activity', 'inactive'),
  ('Cc1cccc(OCCCNC(C)CO)c1C (configuration not stated)', 'Activity', 'inactive'),
  ('Cc1cccc(C)c1OCCOCCN1CCC(O)CC1', 'Activity', 'inactive'),
  ('Cc1cccc(OCCNCC(O)c2ccccc2)c1C (configuration not stated)', 'Activity', 'inactive');

Now for a further compound.
IN: Reported Activity for CCC(CO)NCCOc1cccc(C)c1C (configuration not stated) : what is it?
OUT: inactive

---

# Protocol details: MRT in CD1 mouse plasma at 12.92 mg/kg, ig measured up to 240 mins by LC/ESI-MS/MS analysis
# Type: ADME, organism-based
# Assay context: po
Property name: MRT (min)
State just the number; it will be interpreted in min.

IN: Reported MRT for `Cc1cccc(C)c1OCCOCCN[C@H](C)CO.Cl` : what is it?
OUT: 40.3

---

# Protocol details: MRT in CD1 mouse plasma at 1 mg/kg, iv measured up to 240 mins by LC/ESI-MS/MS analysis
# Type: ADME, organism-based
Property name: MRT (min)
State just the number; it will be interpreted in min.

IN: Reported MRT for `Cc1cccc(C)c1OCCOCCN[C@H](C)CO.Cl` : what is it?
OUT: 55.6

---

# Protocol details: Absolute bioavailability in CD1 mouse plasma at 12.92 mg/kg, ig measured up to 240 mins by LC/ESI-MS/MS analysis
# Assay type: ADME, organism-based
# Assay context: po
Property name: bioavailability (%)
State just the number; it will be interpreted in %.

IN: Reported bioavailability for `Cc1cccc(C)c1OCCOCCN[C@H](C)CO.Cl` : what is it?
OUT: 2.98

---

# Protocol details: Ratio of drug level in brain to plasma in CD1 mouse at 1 mg/kg, iv administered as single dose measured after 120 mins by LC/ESI-MS/MS analysis
# Format: ADME, organism-based
# Assay context: brain and plasma, read-out: BPR
Property name: Kp at 2 h
Form field (numeric): enter value without unit.

IN: Reported Kp at 2 h for `Cc1cccc(C)c1OCCOCCN[C@H](C)CO.Cl` : what is it?
OUT: 6.66
